System: C. difficile 159
Test: MIC by agar dilution against Clostridioides difficile, test strain 15
Assay type: cell-based
Conditions: test strain 15, C. difficile 159, anaerobic, agar dilution, read-out: MIC
PARAMETER: MIC (µg/mL)
Answers are plain numbers, in µg/mL.

Answer for every listed entry: what is its MIC? The entries follow.
1. C/C=C(\NC(=O)c1csc(-c2csc(-c3ccc4c(n3)-c3csc(n3)[C@H]([C@@H](C)O)NC(=O)c3csc(n3)[C@H](C(C)C)NC(=O)c3csc(n3)/C(=C/C)NC(=O)[C@H]([C@@H](C)O)NC(=O)c3csc-4n3)n2)n1)C(=O)NCCn1ccnc1[N+](=O)[O-]
2. CN[C@H](CC(C)C)C(=O)N[C@H]1C(=O)N[C@@H](CC(N)=O)C(=O)N[C@H]2C(=O)N[C@H]3C(=O)N[C@H](C(=O)N[C@H](C(=O)O)c4cc(O)cc(O)c4-c4cc3ccc4O)[C@H](O)c3ccc(c(Cl)c3)Oc3cc2cc(c3O[C@@H]2O[C@H](CO)[C@@H](O)[C@H](O)[C@H]2O[C@H]2C[C@](C)(N)[C@H](O)[C@H](C)O2)Oc2ccc(cc2Cl)[C@H]1O [Van, Vancomycin, reference compound]

*A*
0.5
2
